- Test system: luciferase gene expression in HEK 293 cells in response to Comp. 004
- PROTOCOL SUMMARY: Screen of riboswitch constructs with 12C6-1 variant aptamers (libraries N1-N5) against Comp. 004, luciferase in HEK 293 cells
- Format: cell-based, human
- RUN PARAMETERS: library N5 variant aptamers (L5, X16-X21 randomized) of 12C6-1 in riboswitch constructs; in response to Comp. 004 treatment; HEK 293 cells
PROPERTY: Fold (induction of luciferase gene expression) (fold)
Respond numerically; units are fold and should not be typed.

Task: Output Fold (induction of luciferase gene expression) of N5_3A2 (CTGGGGAGTCCT; chemistry not given here)
Result: 718.0

Task: Output Fold (induction of luciferase gene expression) of N5_6G6 (CTGGGGAGTCCT; chemistry not given here)
Result: 1004.4

Task: Output Fold (induction of luciferase gene expression) of N5_5E4 (CTGGGGAGTCCT; chemistry not given here)
Result: 1116.0

Task: Output Fold (induction of luciferase gene expression) of N5_5D9 (CTGGGGAGTCCT; chemistry not given here)
Result: 712.5

Task: Output Fold (induction of luciferase gene expression) of N5_2F10 (CTGGGGAGTCCT; chemistry not given here)
Result: 1014.6

Task: Output Fold (induction of luciferase gene expression) of N5_7G12 (DNA CTGGGGAGTCCT; chemistry not given here)
Result: 894.6

Task: Output Fold (induction of luciferase gene expression) of N5_4D7 (CTGGGGAGTCCT; chemistry not given here)
Result: 588.1

Task: Output Fold (induction of luciferase gene expression) of N5_1E2 (CTGGGGAGTCCT; chemistry not given here)
Result: 728.6

Task: Output Fold (induction of luciferase gene expression) of N5_7A6 (CTGGGGAGTCCT; chemistry not given here)
Result: 314.5

Task: Output Fold (induction of luciferase gene expression) of N5_9B8 (DNA CTGGGGAGTCCT; chemistry not given here)
Result: 792.8

Task: Output Fold (induction of luciferase gene expression) of N5_5B7 (CTGGGGAGTCCT; chemistry not given here)
Result: 1317.2

Task: Output Fold (induction of luciferase gene expression) of N5_7C10 (CTGGGGAGTCCT; chemistry not given here)
Result: 1090.7

Task: Output Fold (induction of luciferase gene expression) of N5_1A9 (CTGGGGAGTCCT; chemistry not given here)
Result: 804.7

Task: Output Fold (induction of luciferase gene expression) of N5_1G4 (CTGGGGAGTCCT; chemistry not given here)
Result: 86.0

Task: Output Fold (induction of luciferase gene expression) of N5_13D5 (CTGGGGAGTCCT; chemistry not given here)
Result: 749.4

Task: Output Fold (induction of luciferase gene expression) of N5_1E12 (CTGGGGAGTCCT; chemistry not given here)
Result: 1588.2

Task: Output Fold (induction of luciferase gene expression) of N5_7B8 (CTGGGGAGTCCT; chemistry not given here)
Result: 693.7

Task: Output Fold (induction of luciferase gene expression) of N5_7C3 (DNA CTGGGGAGTCCT; chemistry not given here)
Result: 1258.4

Task: Output Fold (induction of luciferase gene expression) of N5_1A10 (CTGGGGAGTCCT; chemistry not given here)
Result: 674.4

Task: Output Fold (induction of luciferase gene expression) of N5_7F10 (DNA CTGGGGAGTCCT; chemistry not given here)
Result: 572.7

Task: Output Fold (induction of luciferase gene expression) of N5_7B1 (CTGGGGAGTCCT; chemistry not given here)
Result: 2062.3

Task: Output Fold (induction of luciferase gene expression) of N5_6F4 (CTGGGGAGTCCT; chemistry not given here)
Result: 1226.6

Task: Output Fold (induction of luciferase gene expression) of N5_1C10 (CTGGGGAGTCCT; chemistry not given here)
Result: 693.8

Task: Output Fold (induction of luciferase gene expression) of N5_7C12 (CTGGGGAGTCCT; chemistry not given here)
Result: 628.9

Task: Output Fold (induction of luciferase gene expression) of N5_7A10 (CTGGGGAGTCCT; chemistry not given here)
Result: 1108.5

Task: Output Fold (induction of luciferase gene expression) of N5_7B3 (CTGGGGAGTCCT; chemistry not given here)
Result: 756.3

Task: Output Fold (induction of luciferase gene expression) of N5_5D7 (CTGGGGAGTCCT; chemistry not given here)
Result: 769.4

Task: Output Fold (induction of luciferase gene expression) of N5_9E6 (DNA CTGGGGAGTCCT; chemistry not given here)
Result: 1020.7

Task: Output Fold (induction of luciferase gene expression) of N5_6F6 (CTGGGGAGTCCT; chemistry not given here)
Result: 953.0

Task: Output Fold (induction of luciferase gene expression) of N5_1H2 (CTGGGGAGTCCT; chemistry not given here)
Result: 386.6

Task: Output Fold (induction of luciferase gene expression) of N5_7H4 (DNA CTGGGGAGTCCT; chemistry not given here)
Result: 560.0

Task: Output Fold (induction of luciferase gene expression) of N5_8G9 (DNA CTGGGGAGTCCT; chemistry not given here)
Result: 1066.5

Task: Output Fold (induction of luciferase gene expression) of N5_9H1 (DNA CTGGGGAGTCCT; chemistry not given here)
Result: 1494.7

Task: Output Fold (induction of luciferase gene expression) of N5_2D8 (CTGGGGAGTCCT; chemistry not given here)
Result: 1047.3

Task: Output Fold (induction of luciferase gene expression) of N5_1A2 (CTGGGGAGTCCT; chemistry not given here)
Result: 672.2

Task: Output Fold (induction of luciferase gene expression) of N5_12G11 (CTGGGGAGTCCT; chemistry not given here)
Result: 1043.8

Task: Output Fold (induction of luciferase gene expression) of N5_7D5 (DNA CTGGGGAGTCCT; chemistry not given here)
Result: 1182.3

Task: Output Fold (induction of luciferase gene expression) of N5_1E10 (CTGGGGAGTCCT; chemistry not given here)
Result: 1026.1

Task: Output Fold (induction of luciferase gene expression) of N5_1G6 (CTGGGGAGTCCT; chemistry not given here)
Result: 1311.6

Task: Output Fold (induction of luciferase gene expression) of N5_1D3 (CTGGGGAGTCCT; chemistry not given here)
Result: 697.1

Task: Output Fold (induction of luciferase gene expression) of N5_2B11 (CTGGGGAGTCCT; chemistry not given here)
Result: 1009.4
